Source listed as patent US4016159A.

System: Streptococcus D
protocol-notes: Minimum inhibition concentration (MIC), Table 4
Assay type: cell-based
condition-info: Streptococcus, Germ: Streptococcus D; read-out: Minimum inhibition concentration (MIC)

# compound, MIC
rows = [
    ("N=C(N)c1ccc(OCC(=O)NC2C(=O)N3C(C(=O)O)=C(CSc4nc(-c5ccccc5)cs4)CSC23)cc1 (stereo not drawn) [Example 27]", "10 to 50 µg/mL"),
    ("CCCc1nnc(SCC2=C(C(=O)O)N3C(=O)C(NC(=O)Cc4ccc(C5=NCCCN5)cc4)C3SC2)o1 (stereo not drawn) [Example 82]", "10 to 50 µg/mL"),
    ("Cc1nnc(SCC2=C(C(=O)O)N3C(=O)[C@@H](NC(=O)Cn4cnnn4)[C@H]3SC2)s1 [Cephazolin, reference compound]", "100 µg/mL"),
    ("O=C(Cc1ccc(C2=NCCCN2)cc1)NC1C(=O)N2C(C(=O)O)=C(CSc3nc4ccccc4s3)CSC12 (stereo not drawn) [Example 85]", "10 to 50 µg/mL"),
    ("CCCc1nnc(SCC2=C(C(=O)O)N3C(=O)C(NC(=O)COc4ccc(C(=N)N)cc4)C3SC2)s1 (stereo not drawn) [Example 68]", "10 to 50 µg/mL"),
    ("Cc1nnc(SCC2=C(C(=O)O)N3C(=O)C(NC(=O)Cc4ccc(C5=NCCN5)cc4)C3SC2)s1 (stereo not drawn) [Example 12]", "0.196 to 6.25 µg/mL"),
    ("CCCc1nnc(SCC2=C(C(=O)O)N3C(=O)C(NC(=O)Cc4ccc(C5=NCCN5)cc4)C3SC2)s1 (stereo not drawn) [Example 53]", "0.196 to 6.25 µg/mL"),
    ("Cc1csc(SCC2=C(C(=O)O)N3C(=O)C(NC(=O)Cc4ccc(NC(=N)N)cc4)C3SC2)n1 (stereo not drawn) [Example 7]", "10 to 50 µg/mL"),
    ("O=C(Cc1ccc(C2=NCCCN2)cc1)NC1C(=O)N2C(C(=O)O)=C(CSc3nc(-c4ccccc4)cs3)CSC12 (stereo not drawn) [Example 14]", "10 to 50 µg/mL"),
    ("O=C(Cc1ccc(C2=NCCN2)cc1)NC1C(=O)N2C(C(=O)O)=C(CSc3nnco3)CSC12 (stereo not drawn) [Example 124]", "10 to 50 µg/mL"),
    ("Cc1nnc(SCC2=C(C(=O)O)N3C(=O)C(NC(=O)Cc4ccc(C(=N)N)cc4)C3SC2)o1 (stereo not drawn) [Example 60]", "10 to 50 µg/mL"),
    ("Cc1nnc(SCC2=C(C(=O)O)N3C(=O)C(NC(=O)Cc4ccc(C(=N)N)cc4)C3SC2)s1 (stereo not drawn) [Example 26]", "10 to 50 µg/mL"),
    ("O=C(COc1ccc(C2=NCCCN2)cc1)NC1C(=O)N2C(C(=O)O)=C(CSc3nnc(-c4ccccc4)s3)CSC12 (stereo not drawn) [Example 50]", "0.196 to 6.25 µg/mL"),
    ("Cc1csc(SCC2=C(C(=O)O)N3C(=O)C(NC(=O)Cc4ccc(C(=N)N)cc4)C3SC2)n1 (stereo not drawn) [Example 5]", "10 to 50 µg/mL"),
    ("N=C(N)c1ccc(CC(=O)NC2C(=O)N3C(C(=O)O)=C(CSc4nnco4)CSC23)cc1 (stereo not drawn) [Example 61]", "10 to 50 µg/mL"),
]
